Ref: a melting point compilation (Tetko et al.; mined from patent text by program, amines drawn as free bases though some values may be those of a salt)

The entries below come with measured melting point values attached.

# test smiles, observed result
records = [
    ("COc1ccc(C)cc1NC(=O)Nc1ccc(N2CCN(C(=O)Nc3ncccc3C)CC2)cc1", "209 to 211 °C"),
    ("OCc1cccc2c1CCc1ccccc1-2", "108 to 110 °C"),
    ("CC(O)=C(C#N)C(=O)Nc1ccc(Br)cc1Br", "181 °C"),
    ("O=C(O)c1sc(-c2ccc(C(F)(F)F)cc2)nc1CO", "250 to 252 °C"),
    ("CCc1c(C)nc(-c2ncc([N+](=O)[O-])n2C)nc1C", "110 °C"),
]

Then this compound:
So, "O=C(O)c1cccc(-c2coc3c(O)c(O)ccc3c2=O)c1" ? Its melting point was 313 to 314 °C
